# target: SARS-CoV-2 N protein C-terminal domain (NCTD) (SARS-CoV-2, UniProt P0DTC9 256-364)
# testDescription: EMSA; […]; binding buffer not stated ([…]
# experimentalConditions: protein: recombinant; tags: N-terminal His6-TEV site (pET28a); chain copies: 2; label: 5' IRDye-800CW
measurementLabel: pKd
Numbers only, as −log10 of the molar value.

query: Specify pKd for CGGUUUCGCCG (ssRNA) [Oligo-G (SL5a apical region)] and stop.
result: 7.49

Data credit: paper PMC9288159
